Where do the numbers come from? From patent US9498483B2.

This document collects IC50 values reported for HCV polymerase (Hepatitis C virus genotype 1b).
Give bare numbers, in nM.

# compound, reported_result
measured = [
    ("NCC1CCN(c2ccc(S(=O)(=O)N3CC(=O)N(c4cc(-c5ccccc5)sc4C(=O)O)[C@H](C4CCCCC4)C3)cn2)CC1", 1.9),
    ("CC(C)(C)C#Cc1cc(N2C(=O)CN(S(=O)(=O)c3ccc(OC(F)(F)F)cc3)C[C@H]2C2CCCCC2)c(C(=O)O)s1", 9),
]

query: Query: IC50; subject: COCCNCC1OC[C@@H](C2CCCCC2)N(c2cc(C#CC(C)(C)C)sc2C(=O)O)C1=O (stereo partly drawn)
result: 6

* * *

Please provide measured IC50 for the entries that follow.
# Test system: HCV replicon I389luc-ubi-neo/NS3-3′/ET in ET (Huh-lucubineo-ET) cells
# test_description: Replicon assay (Biological Example 2), luciferase readout
# Type: cell-based
# applied_conditions: Hepatitis C virus; ET cells, luciferase activity 48 hours after compound

// worked examples, IC50 included
# molecule, system_name, reported_result
measured = [
    ("CC(=O)N1CCN(c2ccc(S(=O)(=O)N3CC(=O)N(c4cc(-c5ccccc5)sc4C(=O)O)C(C4CCCCC4)C3)cn2)CC1 (stereo not drawn) [Compound 89]", "HCV replicon I389luc-ubi-neo/NS3-3′/ET in ET (Huh-lucubineo-ET) cells", "≤ 0.1 µM"),
    ("CC(C)(C)C#Cc1cc(N2C(=O)[C@@H](CC(O)CO)OC[C@H]2C2CCCCC2)c(C(=O)O)s1 (stereo partly drawn) [Compound 10]", "HCV replicon I389luc-ubi-neo/NS3-3′/ET in ET (Huh-lucubineo-ET) cells", "≤ 0.1 µM"),
    ("C[C@@H]1CCCN1c1ccc(S(=O)(=O)N2CC(=O)N(c3cc(-c4ccc(F)cc4)sc3C(=O)O)[C@H](C3CCCCC3)C2)cn1 [Compound 185]", "HCV replicon I389luc-ubi-neo/NS3-3′/ET in ET (Huh-lucubineo-ET) cells", "≤ 0.1 µM"),
    ("O=C(O)c1sc(-c2ccc(F)cc2)cc1N1C(=O)CN(S(=O)(=O)c2ccc(N3CCCOCC3)nc2)C[C@H]1C1CCCCC1 [Compound 186]", "HCV replicon I389luc-ubi-neo/NS3-3′/ET in ET (Huh-lucubineo-ET) cells", "≤ 0.1 µM"),
    ("O=C(O)c1sc(-c2ccc(F)cc2)cc1N1C(=O)CN(S(=O)(=O)c2ccc(N3CC4CC3CO4)nc2)C[C@H]1C1CCCCC1 (stereo partly drawn) [Compound 228]", "HCV replicon I389luc-ubi-neo/NS3-3′/ET in ET (Huh-lucubineo-ET) cells", "≤ 0.1 µM"),
]

Shift focus to the following entry.
query: Query: IC50; subject: CCN(CC)c1ccc(S(=O)(=O)N2CC(=O)N(c3cc(-c4ccccc4)sc3C(=O)O)C(C3CCCCC3)C2)cn1 (stereo not drawn) [Compound 69]
result: ≤ 0.1 µM

* * *

Please provide measured pIC50 for the entries that follow.
# System: HCV replicon I389luc-ubi-neo/NS3-3′/ET in ET (Huh-lucubineo-ET) cells
# test_description: Replicon assay (Biological Example 2), luciferase readout
# Type: cell-based
# applied_conditions: Hepatitis C virus; ET cells, luciferase activity 48 hours after compound
pIC50: −log10 of the molar value.

// worked examples, pIC50 included
# compound, system_name, pIC50
records = [
    ("O=C(O)c1sc(-c2ccccc2)cc1N1C(=O)CN(S(=O)(=O)c2ccc(N3CCCCC3)nc2)CC1C1CCCCC1 (stereo not shown) [Compound 84]", "HCV replicon I389luc-ubi-neo/NS3-3′/ET in ET (Huh-lucubineo-ET) cells", "≥ 7.00"),
    ("Cc1ccc(S(=O)(=O)N2CC(=O)N(c3cc(C#CC(C)(C)C)sc3C(=O)O)C(C3CCCCC3)C2)cc1 (stereo not shown) [Compound 166]", "HCV replicon I389luc-ubi-neo/NS3-3′/ET in ET (Huh-lucubineo-ET) cells", "≤ 5.30"),
    ("CN1CCN(c2ccc(S(=O)(=O)N3CC(=O)N(c4cc(-c5ccccc5)sc4C(=O)O)[C@H](C4CCCCC4)C3)cn2)CC1 [Compound 137]", "HCV replicon I389luc-ubi-neo/NS3-3′/ET in ET (Huh-lucubineo-ET) cells", "≥ 7.00"),
    ("O=C(O)c1sc(-c2ccccc2)cc1N1C(=O)CN(C(=O)c2ccccc2)C[C@H]1C1CCCCC1 [Compound 16]", "HCV replicon I389luc-ubi-neo/NS3-3′/ET in ET (Huh-lucubineo-ET) cells", "≤ 5.30"),
    ("CC(C)(C)C#Cc1cc(N2C(=O)C(O)CCC2C2CCCCC2)c(C(=O)O)s1 (stereo not shown) [Compound 313]", "HCV replicon I389luc-ubi-neo/NS3-3′/ET in ET (Huh-lucubineo-ET) cells", "≥ 7.00"),
    ("C[C@@H](O)CC[C@@]1(C)OC[C@@H](C2CCCCC2)N(c2cc(C#CC(C)(C)C)sc2C(=O)O)C1=O [Compound 321]", "HCV replicon I389luc-ubi-neo/NS3-3′/ET in ET (Huh-lucubineo-ET) cells", "≥ 7.00"),
]

Shift focus to the following entry.
query: Query: pIC50; subject: C[C@@H]1CCCN1c1ccc(S(=O)(=O)N2CC(=O)N(c3cc(-c4ccccc4)sc3C(=O)O)[C@H](C3CCCCC3)C2)cn1 [Compound 130]
result: ≥ 7.00
